# Test Target: glutathione S-transferase/human androgen receptor DNA binding domain (amino acids 505-635) (human) (UniProt P10275)
# Sequence (P10275 505-635): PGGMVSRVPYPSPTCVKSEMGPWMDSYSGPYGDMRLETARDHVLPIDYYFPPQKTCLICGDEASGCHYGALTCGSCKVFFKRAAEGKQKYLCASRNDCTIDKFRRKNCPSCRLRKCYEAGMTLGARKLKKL
# Assay Method Text: ECL competition binding assay (IGEN M8): peptide against GST-DBD binding to biotinylated ARE oligonucleotide
pIC50: −log10 of the molar value.
Quantity Measured: pIC50

>>> endpoint_value("Ac-DSSSEI-NH2 (also called Cmpd No. 37) [Ac-DSSSEI-NH2]")
4.70
